- target-desc: T1, Dpo4 (SsoDpo4, Y-family DNA polymerase) (Sulfolobus solfataricus, UniProt Q97W02 1-352)
- T1 sequence: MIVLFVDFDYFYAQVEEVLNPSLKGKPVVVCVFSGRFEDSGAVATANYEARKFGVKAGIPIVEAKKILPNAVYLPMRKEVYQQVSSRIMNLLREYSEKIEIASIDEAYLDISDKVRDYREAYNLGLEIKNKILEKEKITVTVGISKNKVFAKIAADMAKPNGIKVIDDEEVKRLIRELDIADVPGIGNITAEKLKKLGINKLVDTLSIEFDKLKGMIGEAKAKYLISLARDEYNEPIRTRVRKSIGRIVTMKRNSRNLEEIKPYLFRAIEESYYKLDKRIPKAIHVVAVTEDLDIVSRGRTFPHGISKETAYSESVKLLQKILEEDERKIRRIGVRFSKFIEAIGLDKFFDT
- test-protocol: fluorescence anisotropy
pKd: −log10 of the molar value.
readout-type: pKd

binder | readout-number
TTTTTTTTTTCCCGGGCCGGCGTTTCGCCGGCCCGGG (structured_DNA) [37-nt hairpin primer-template, 5'-Cy3] | 6.89
